Biological target: T1, PUF4 RNA-binding domain (Saccharomyces cerevisiae, UniProt P25339 537-888)
T1 sequence: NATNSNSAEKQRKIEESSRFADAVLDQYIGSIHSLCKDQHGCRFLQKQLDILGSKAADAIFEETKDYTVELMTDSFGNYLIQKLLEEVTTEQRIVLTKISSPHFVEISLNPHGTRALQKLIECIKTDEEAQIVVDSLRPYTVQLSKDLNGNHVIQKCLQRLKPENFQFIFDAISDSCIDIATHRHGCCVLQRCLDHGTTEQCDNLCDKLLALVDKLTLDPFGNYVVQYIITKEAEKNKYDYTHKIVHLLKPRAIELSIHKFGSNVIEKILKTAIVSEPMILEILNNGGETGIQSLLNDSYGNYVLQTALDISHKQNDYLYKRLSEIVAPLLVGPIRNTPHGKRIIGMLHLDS
Assay: Mg; RNA-MaP; 20 mM Na-HEPES pH 7.4, 30 mM KOAc, 0.75 mM MgCl2, 0.1% Tween-20, 5% glycerol, 0.1 mg/mL BSA, 2 mM DTT; 25 C; 0.0125-409.6 nM protein
Settings: tags: N-His6-TEV cleaved; C-SNAP kept, Cy3B-labelled; label: tethered on chip by stalled RNA polymerase
observed.property: pKd
The meaning of pKd here: minus log10 of the concentration in molar units.

Query: // lookup pKd for UCUCUUCGUAUAUAUAUAUCUCUU (ssRNA) [Id_ii_S1_P3E.3_K3.2_C3.2_[T-1G]_H3.2_A3.1_F3.1_T3.2]
Reply: 6.31

Query: Proceed to Id_ii_S4_P3E.3_K3.2_C3.2_[C-2A]_H3.2_A3.1_F3.1_T3.2_[T9C]_[A10T] (ssRNA) RNA: UUUGACAACUGAUCGUUCUUUCUAUUAUAUAUACUUUCUUUCUCGAUCAGUUGUCUUU
Reply: 6.67

Query: Again, but for Id_ii_S2_P3E.4_K3.3_C3.2_[C-2A]_[T-1A]_H3.3_A3.1_F3.1_T3.2 (ssRNA) RNA: UUUGAUUAAUAUGAUAUCGUUCUUUCUAAACACUAUAUAUUCUUUCUCGAUAUCAUAUUAAUCUUU
Reply: 6.62

Query: Now this one: ACAAACUGUCCUCAUAUUAACAAAC (ssRNA) [Ie_S3_P4E.1_K4.1_C4.1_H4.1_[+3CCTC]_A4.1_F4.1_T4.1]
Reply: 6.19

Query: Now the same for Ib_S4_P4E.1_K4.1_C4.1_H4.1_[T1A]_A4.1_[A6C]_F4.1_T4.1 (ssRNA) RNA: UUUGACAACUGAUCGUUCUUUCUAGUAUCUUAUUCUUUCUCGAUCAGUUGUCUUU
Reply: 5.64

Query: Repeat with Id_iii_S4_P4E.7_K4.3_C4.3_[C-2G]_H4.3_A4.1_F4.1_T4.2 (ssRNA) RNA: UUUGACAACUGAUCGUUCUUUCUUGUACACUAUUAGUUUCUUUCUCGAUCAGUUGUCUUU
Reply: 8.76
